Where a name gives a salt, the structure may show the parent alone.
Field: melting point. Provide a value for each of the molecules that follow.
Numbers only here, please. The scale is °C.

[in] Quick one: melting point for COc1nc2ccc(F)cc2cc1C(c1ccc(Cl)cc1)C1(O)CCNC(c2ccc(F)cc2C)C1 (stereo not drawn) (as salt: fumarate) [Compound 330] ?
[out] 170

[in] And what about the molecule COc1nc2ccc(Cl)cc2cc1C(c1ccc(Cl)cc1)C1(O)CCNCC1c1cccnc1 (stereo not drawn) [Compound 443] ?
[out] 156

[in] Same thing, different molecule: COc1nc2ccc(Br)cc2cc1C(c1ccc(Cl)cc1)C1(O)CCNC(Cc2ccc(F)cc2)C1 (stereo not drawn) [Compound 339]
[out] 176

[in] What do we get for COc1nc2ccc(S(C)(=O)=O)cc2cc1C(c1ccc(Cl)cc1)C1(O)CCNC(Cc2ccc(F)cc2F)C1 (stereo not drawn) (as salt: trifluoroacetate) [Compound 305] ?
[out] 133

[in] Now the same for COc1nc2ccc(SC)cc2cc1C(c1ccc(Cl)cc1)C1(O)CCNCC1Cc1cccc(F)c1 (stereo not drawn) [Compound 283]
[out] 184

[in] Same for COc1nc2ccc(Cl)cc2cc1C(c1ccc(Cl)cc1)C1(O)CCNC(c2ccc(F)cc2C)C1 (single isomer, unassigned) [Compound 2]
[out] 126

[in] What do we get for COc1nc2ccc(SC)cc2cc1C(c1cccc(Cl)c1)C1(O)CCNC(Cc2ccc(F)cc2F)C1 (stereo not drawn) [Compound 318] ?
[out] 133

[in] Item: COc1nc2ccc(Cl)cc2cc1C(c1ccc(Cl)cc1)C1(O)CCNCC1F (stereo not drawn) [Compound 449]
[out] 190

[in] Same lookup for COc1nc2ccc(SC)cc2cc1C(c1ccc(Cl)cc1)C1(O)CCNC(Cc2ccc(F)cc2)C1 (stereo not drawn) [Compound 299] , please.
[out] 110

[in] Similarly, COc1nc2ccccc2cc1C(c1ccc(Cl)cc1)C1(O)CCNC(Cc2ccc(F)c(F)c2)C1 (stereo not drawn) (as salt: fumarate) ?
[out] 130

[in] Also need COc1nc2ccc(Cl)cc2cc1C(c1ccc(Cl)cc1)C1(O)CCNCC1F (stereo not drawn) [Compound 456] , thanks.
[out] 115

[in] Ok, now COc1nc2ccc(Br)cc2cc1C(c1ccc(Cl)cc1)C1(O)CCNC(Cc2ccc(F)cc2)C1 (stereo not drawn) [Compound 355]
[out] 190

====

Structures can show the parent of a compound that is named as a salt.
parameter measured: melting point (°C)
Could you give me the number in °C? Just the number is fine.

[in] Bench note: what melting point did COc1nc2ccc(SC)cc2cc1C(c1ccccc1)C1(O)CCNC(c2ccc(F)cc2C)C1 (stereo not shown) [Compound 168] show?
[out] 169

[in] Now this one: COc1nc2ccc(Cl)cc2cc1C(c1ccc(S(C)(=O)=O)cc1)C1(O)CCNC(c2ccc(F)cc2C)C1 (stereo not shown) (as salt: fumarate) [Compound 369]
[out] 138

[in] Continue with COc1nc2ccc(S(C)(=O)=O)cc2cc1C(c1ccc(Cl)cc1)C1(O)CCNC(c2ccc(F)cc2C)C1 (stereo not shown) [Compound 217]
[out] 169

[in] Also COc1nc2ccc(S(C)(=O)=O)cc2cc1C(c1cccc(Cl)c1)C1(O)CCNC(c2ccc(F)cc2C)C1 (stereo not shown) [Compound 44] ?
[out] 148

[in] Quick one: COc1nc2ccc(S(C)(=O)=O)cc2cc1C(c1ccc(Cl)cc1)C1(O)CCNC(Cc2ccc(F)cc2)C1 (stereo not shown) [Compound 390]
[out] 170

[in] How about COc1nc2ccc(SC)cc2cc1C(c1ccc(Cl)cc1)C1(O)CCNCC1Cc1cccc(F)c1 (stereo not shown) (as salt: fumarate) [Compound 286] ?
[out] 177
